Data provenance: PubChem BioAssay (NCI)

Recorded growth inhibition values for a group of compounds are listed next.
# procedureText: NCI Yeast Anticancer Drug Screen. Data for the mec2-1 strain (AID 157)
# conditionSet: S. cerevisiae mec2-1 strain, at 50.0 µM, stronger effect = higher value
# Protocol: Growth inhibition of yeast strains with defined genetic alterations is measured as a screen for potential anti-cancer activity. Selected strains with alterations in DNA damage repair or cell cycle control were exposed to compounds and growth inhibition was measured relative to vehicle treated controls. The strain used in this assay is mec2-1
This is part of a sample that, as a whole, favours compounds with a hit. Of some 79,000 tested, about 15% had one in any assay. Calls of active or inactive are those of the source. No stated cut-off is given here; in the data, active means growth inhibition above about 70%; inactive means the rest.

Some compounds with known growth inhibition results, for comparison:
INSERT INTO measurements (compound, obsvalue) VALUES
  ('CCO/C=C1\SC(=S)N(c2cccc(O)c2)C1=O', '15.3% (inactive)'),
  ('CCCCCCCCCC(=O)c1ccc(O)c(O)c1O', '91.8% (active)'),
  ('CN1C(c2ccccc2)CC(=NOCc2ccccc2)CC1c1ccccc1 (stereo unspecified)', '83.8% (active)');

Return reported growth inhibition; argument: `Cc1ccccc1N=Nc1ccc(N=Nc2ccc(N)nc2N)c(C)c1`
62.1% (inactive)

Return reported growth inhibition; argument: `O=[N+]([O-])c1cc([N+](=O)[O-])c2ccccc2c1NS(=O)(=O)/C=C/c1ccccc1`
70.7% (active)

Return reported growth inhibition; argument: O=C(OC1COC(OC(=O)c2ccccc2)C(OC(=O)c2ccccc2)C1OC(=O)c1ccccc1)c1ccccc1 (stereo unspecified)
-7.1% (inactive) [middle of 4 runs]

Return reported growth inhibition; argument: `Nc1ccc2c3c(cccc13)C(=O)N(CCCBr)C2=O`
0.7% (inactive)

Return reported growth inhibition; argument: `Cc1nnc(S(=O)(=O)c2ccc(N=Nc3c(N)nc(N)nc3N)cc2)s1`
-13.2% (inactive)
